- Species on record: Homo sapiens
- protocol_notes: Inhibition of human recombinant topoisomerase 1B expressed in topoisomerase 1B- deficient Saccharomyces cerevisiae EKY3 assessed as decrease in relaxation of negatively supercoiled pSK DNA at 100 uM preincubated for 1 min followed by supercoiled pSK DNA addition measured after 5 mins by aggarose gel electrophoresis
Activity calls are given as the source filed them. The rule behind the calls is not given here.
observable: inhibition

FC(F)(F)c1ccc(-c2nc3cccnc3c3c2Cc2ccccc2-3)cc1 = Active
c1ccc([C@H]2Nc3cccnc3[C@H]3c4ccccc4C[C@H]32)cc1 = Active
c1ccc2c(c1)Cc1c(-c3ccc4ccccc4c3)nc3cccnc3c1-2 = Active
Fc1ccc([C@H]2Nc3cccnc3[C@H]3c4ccccc4C[C@H]32)cc1F (relative stereo) = Active
CC[C@@]1(O)C(=O)OCc2c1cc1n(c2=O)Cc2cc3ccccc3nc2-1 [CAMPTOTHECIN] = Active
Fc1ccc(-c2nc3cccnc3c3c2Cc2ccccc2-3)cc1 = Active
O=[N+]([O-])c1ccc(-c2nc3cccnc3c3c2Cc2ccccc2-3)cc1 = Active
O=[N+]([O-])c1ccc([C@H]2Nc3cccnc3[C@H]3c4ccccc4C[C@H]32)cc1 (relative stereo) = Active

Where do these numbers come from? They come from ChEMBL document CHEMBL3877246.
